Test: Measurement of lipophilicity (n-octanol / sodium phosphate buffer partition)
Type: physicochemical
Conditions: n-octanol / sodium phosphate buffer 0.15 M, pH 7.4; measured five times; read-out: lipophilicity (ratio of counts per minute from n-octanol versus sodium phosphate buffer) (converted)
quantity: logD
// no unit, no text: just the number

Give reported logD value for CCCN(CCC)C(=O)Cc1c(-c2ccc([18F])cc2)nc2c(Cl)cc(Cl)cn12 [[^18F]BS224]
0.444
